Listed next: entries and their corresponding Fold IC50 increase relative to wild-type.
System Tested: HIV-1 JR-CSF Env D417A (HIV-1 (isolate JR-CSF)) (UniProt P20871)
Protocol Summary: cell-based or functional assay
Value expressed in fold; do not type the unit.

Please review the entries below; each comes with its answer.
{"columns": ["Binder", "Quantitative Readout"],
 "data": [
  ["PGT-123 (antibody, V domains shown) VH: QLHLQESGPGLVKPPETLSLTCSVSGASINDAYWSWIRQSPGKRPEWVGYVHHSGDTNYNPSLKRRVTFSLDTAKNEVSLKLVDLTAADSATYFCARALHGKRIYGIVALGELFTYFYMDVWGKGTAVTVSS VL: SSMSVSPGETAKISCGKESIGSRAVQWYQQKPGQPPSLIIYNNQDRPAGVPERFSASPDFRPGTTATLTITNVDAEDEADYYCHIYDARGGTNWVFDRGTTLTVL", 0.7],
  ["PGT-131 (antibody, V domains shown) VH: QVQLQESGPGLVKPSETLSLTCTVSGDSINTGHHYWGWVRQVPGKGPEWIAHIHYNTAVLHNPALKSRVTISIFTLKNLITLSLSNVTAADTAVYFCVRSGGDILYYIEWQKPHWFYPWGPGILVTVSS VL: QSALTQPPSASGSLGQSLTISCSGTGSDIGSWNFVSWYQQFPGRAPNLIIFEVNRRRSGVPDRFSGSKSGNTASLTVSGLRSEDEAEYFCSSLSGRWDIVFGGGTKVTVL", 1],
  ["PGT-125 (antibody, V domains shown) VH: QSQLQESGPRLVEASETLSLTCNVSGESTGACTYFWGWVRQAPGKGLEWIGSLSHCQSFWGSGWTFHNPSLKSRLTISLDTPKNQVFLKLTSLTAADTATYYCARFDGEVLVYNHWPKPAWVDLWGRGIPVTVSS VL: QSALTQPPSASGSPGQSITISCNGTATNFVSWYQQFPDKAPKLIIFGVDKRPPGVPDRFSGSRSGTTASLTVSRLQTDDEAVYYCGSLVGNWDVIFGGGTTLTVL", 0.5],
  ["PGT-128 (antibody, V domains shown) VH: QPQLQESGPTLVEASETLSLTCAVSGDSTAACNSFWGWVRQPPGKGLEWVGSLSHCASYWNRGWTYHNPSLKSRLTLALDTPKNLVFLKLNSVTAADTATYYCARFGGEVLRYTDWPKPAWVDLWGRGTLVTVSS VL: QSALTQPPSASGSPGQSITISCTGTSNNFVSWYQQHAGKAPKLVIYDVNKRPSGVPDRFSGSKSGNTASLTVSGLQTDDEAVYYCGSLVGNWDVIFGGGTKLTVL", 0.5],
  ["PGT-126 (antibody, V domains shown) VH: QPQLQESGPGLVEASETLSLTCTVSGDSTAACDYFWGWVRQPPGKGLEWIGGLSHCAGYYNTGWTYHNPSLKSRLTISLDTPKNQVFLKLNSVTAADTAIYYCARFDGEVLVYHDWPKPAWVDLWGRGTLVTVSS VL: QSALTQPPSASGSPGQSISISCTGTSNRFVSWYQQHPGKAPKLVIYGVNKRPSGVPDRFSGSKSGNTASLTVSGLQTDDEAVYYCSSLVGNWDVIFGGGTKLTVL", 1]
]}

PGT-135 (antibody, V domains shown) VH: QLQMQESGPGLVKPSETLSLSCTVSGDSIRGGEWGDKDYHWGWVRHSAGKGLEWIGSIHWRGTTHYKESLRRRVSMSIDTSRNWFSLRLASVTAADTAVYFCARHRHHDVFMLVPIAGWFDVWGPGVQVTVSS VL: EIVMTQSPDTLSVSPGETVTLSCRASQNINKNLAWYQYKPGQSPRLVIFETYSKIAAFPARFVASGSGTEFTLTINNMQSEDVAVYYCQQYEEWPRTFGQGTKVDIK yielded Fold IC50 increase relative to wild-type of 5

Fold IC50 increase relative to wild-type measured on PGT-127 (antibody, V domains shown) VH: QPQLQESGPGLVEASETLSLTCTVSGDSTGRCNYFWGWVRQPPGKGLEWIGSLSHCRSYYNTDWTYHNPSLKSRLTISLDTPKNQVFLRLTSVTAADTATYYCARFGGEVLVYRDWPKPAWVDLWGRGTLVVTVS VL: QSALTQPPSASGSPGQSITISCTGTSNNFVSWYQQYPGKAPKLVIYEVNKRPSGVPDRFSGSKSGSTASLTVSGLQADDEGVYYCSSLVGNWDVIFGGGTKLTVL = 0.4

Recorded Fold IC50 increase relative to wild-type (binder PGT-130 (antibody, V domains shown) VH: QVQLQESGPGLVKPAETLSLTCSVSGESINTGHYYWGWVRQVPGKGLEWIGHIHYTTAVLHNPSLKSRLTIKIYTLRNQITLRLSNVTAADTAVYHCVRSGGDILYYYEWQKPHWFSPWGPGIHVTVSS VL: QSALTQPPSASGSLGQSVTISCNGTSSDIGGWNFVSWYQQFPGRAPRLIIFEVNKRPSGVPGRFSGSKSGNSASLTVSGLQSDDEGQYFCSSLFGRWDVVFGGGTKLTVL ): 1
